TEST DESCRIPTION: Intravenous and buccal pharmacokinetic study in the minipig
Type: in vivo
CONDITION DESCRIPTION: male, Göttingen, in vivo, iv, 0.0025 mg/kg, IV 0.0025 mg/kg, mean, read-out: Plasma concentration Day 1 Hour 6, Mean
Counter-ions that a name gives are not always drawn.

{"COMPOUND": "CCCN1CCC[C@@H]2Cc3c(ccc(O)c3O)C[C@H]21 [compound 10, hydrobromide]", "UNIT TEXT": "ng/mL", "concentration at 6 h": 0.0598}

---

TEST DESCRIPTION: Intravenous and buccal pharmacokinetic study in the minipig
Format: in vivo
CONDITION DESCRIPTION: male, Göttingen, in vivo, 0.04 mg/kg, buccal 0.040 mg/kg, individual animals 1-3, read-out: Plasma concentration Day 5 Hour 0.5
Structures can show the parent of a compound that is named as a salt.

{"MOLECULE": "CCCN1CCC[C@@H]2Cc3c(ccc(O)c3O)C[C@H]21 [compound 10, hydrobromide]", "concentration at 0.5 h [ng/mL]": 7.88}
